# key: entry, value: inhibition of SARS-CoV-2 cytopathic effect
Test system: Vero E6 infected with SARS-CoV-2
PROCEDURE TEXT: inhibition of SARS-CoV-2 cytopathic effect; higher = more antiviral protection, active = above 15
MEASUREMENT CONTEXT: 833.33 nM; 48 h
Numeric answer only, unit % assumed.

{"COMPOUND": "CC[C@@H](CO)NC(=O)[C@@H]1C=C2c3cccc4c3c(cn4C)C[C@H]2N(C)C1 [methysergide]", "MEASUREMENT TARGET": "Vero E6 infected with SARS-CoV-2", "UNITS": "%", "RESULT VALUE": 1.51}
{"COMPOUND": "CCOC(=O)c1ncn2c1[C@@H]1CCCN1C(=O)c1cc(OC)ccc1-2", "MEASUREMENT TARGET": "Vero E6 infected with SARS-CoV-2", "UNITS": "%", "RESULT VALUE": -0.77}
{"COMPOUND": "CCCN1C[C@H](CSC)C[C@@H]2c3cccc4[nH]cc(c34)C[C@H]21 [pergolide]", "MEASUREMENT TARGET": "Vero E6 infected with SARS-CoV-2", "UNITS": "%", "RESULT VALUE": 0.65}

Would you kindly share the measured inhibition of SARS-CoV-2 cytopathic effect for COc1ccc(C(=O)NCc2ccc(OCCN(C)C)cc2)cc1OC [itopride] ? -0.42

Request the reported inhibition of SARS-CoV-2 cytopathic effect associated with CC(=O)OCC(=O)[C@@]1(O)CC[C@H]2[C@@H]3CCC4=CC(=O)C=C[C@]4(C)[C@@]3(F)[C@@H](O)C[C@@]21C [isoflupredone-acetate] 1.17

====

Recorded inhibition of SARS-CoV-2 cytopathic effect values for a group of compounds are listed next.
Tested on: Vero E6 infected with SARS-CoV-2
PROCEDURE TEXT: inhibition of SARS-CoV-2 cytopathic effect; higher = more antiviral protection, active = above 15
MEASUREMENT CONTEXT: 8.33 nM; 48 h
Express it in %; write the number only.

Consider the worked cases shown below.
{"COMPOUND": "C[C@H]1O[C@H](O[C@H]2[C@H](O)[C@@H](O)[C@@H](O[C@H]3[C@H](O)[C@@H](O)C(O)O[C@@H]3CO)O[C@@H]2CO)[C@H](O)[C@@H](O)[C@@H]1N[C@H]1C=C(CO)[C@@H](O)[C@H](O)[C@H]1O (some centres undefined)", "UNITS": "%", "RESULT VALUE": 1.35}
{"COMPOUND": "CN1C(=O)CC(c2ccccc2)C1=O (centres undefined) [phensuximide]", "UNITS": "%", "RESULT VALUE": 3.13}
{"COMPOUND": "CC(C)(C)NCC(O)c1cc(Cl)c(N)c(C(F)(F)F)c1 (centres undefined)", "UNITS": "%", "RESULT VALUE": -0.53}

Continue with the compound presented below.
Quick check: inhibition of SARS-CoV-2 cytopathic effect on Vero E6 infected with SARS-CoV-2, item CN1C(=O)C(N2CCCCC2)S/C1=C\C(=O)O (centres undefined) ? 0.03

====

System: Vero E6 infected with SARS-CoV-2
PROCEDURE TEXT: inhibition of SARS-CoV-2 cytopathic effect; higher = more antiviral protection, active = above 15
MEASUREMENT CONTEXT: 833.33 nM; 48 h
QUANTITY: inhibition of SARS-CoV-2 cytopathic effect (%)
All answers are understood in %, so give the number only.

Please review the following examples before continuing.
{"ENTRY SMILES": "NCCCC[C@H](NC(=O)[C@@H](Cc1cc(Br)c(O)c(Br)c1)NC(=O)N1CCC(N2Cc3ccccc3NC2=O)CC1)C(=O)N1CCN(c2ccncc2)CC1", "MEASUREMENT TARGET": "Vero E6 infected with SARS-CoV-2", "RESULT VALUE": -1.34}
{"ENTRY SMILES": "CN(C)[C@@H](CCOc1cccc2ccccc12)c1ccccc1", "MEASUREMENT TARGET": "Vero E6 infected with SARS-CoV-2", "RESULT VALUE": 0.31}
{"ENTRY SMILES": "COc1cc(C[C@H]2C(=O)OC[C@@H]2Cc2ccc(OC)c(OC)c2)ccc1O", "MEASUREMENT TARGET": "Vero E6 infected with SARS-CoV-2", "RESULT VALUE": 0.01}
{"ENTRY SMILES": "CCNC(=O)c1noc(-c2cc(C(C)C)c(O)cc2O)c1-c1ccc(CN2CCOCC2)cc1", "MEASUREMENT TARGET": "Vero E6 infected with SARS-CoV-2", "RESULT VALUE": 0.4}

Form entry - test system: Vero E6 infected with SARS-CoV-2; read-out: inhibition of SARS-CoV-2 cytopathic effect; compound: `COc1ccc(CN2C(=O)C(=O)c3cc(OC(F)(F)F)ccc32)cc1` 1.75
